The following compounds are listed with their measured log10 of EC50 values.
System Under Test: 5-HT2A receptor (Homo sapiens, UniProt P28223)
Sequence (P28223 whole entry): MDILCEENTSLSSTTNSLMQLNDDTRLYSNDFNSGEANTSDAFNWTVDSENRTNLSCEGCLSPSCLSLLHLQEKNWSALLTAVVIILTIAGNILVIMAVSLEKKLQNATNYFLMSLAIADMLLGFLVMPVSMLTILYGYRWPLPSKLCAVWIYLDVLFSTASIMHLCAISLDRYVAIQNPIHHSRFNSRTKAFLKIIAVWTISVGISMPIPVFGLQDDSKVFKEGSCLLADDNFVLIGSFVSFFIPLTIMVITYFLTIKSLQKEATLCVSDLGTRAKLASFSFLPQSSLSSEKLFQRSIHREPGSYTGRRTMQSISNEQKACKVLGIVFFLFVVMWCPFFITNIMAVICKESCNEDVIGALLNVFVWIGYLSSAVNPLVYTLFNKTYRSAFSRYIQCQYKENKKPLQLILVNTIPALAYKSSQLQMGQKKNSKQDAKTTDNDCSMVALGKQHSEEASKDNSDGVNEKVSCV
Assay Notes: FLIPR Ca2+ flux functional assay, agonist activity at 5-HT2A
Measurement Parameters: stably transfected HEK293 cells
Recorded Metric: log10 of EC50 (log10 of the value in nM)

>  <Compound>
Fc1cnc2[nH]cc(CCN3CCCC3)c2c1

>  <log10 of EC50>
1.58

$$$$
>  <Compound>
CC(C)N(C)CCc1c[nH]c2ncc(Br)cc12

>  <log10 of EC50>
2.20

$$$$
>  <Compound>
Fc1cccc(CNCCc2c[nH]c3ncc(F)cc23)c1

>  <log10 of EC50>
1.19

$$$$
>  <Compound>
C[C@H]1CCCN1CCc1c[nH]c2ncc(F)cc12

>  <log10 of EC50>
2.60

$$$$
>  <Compound>
Fc1cnc2[nH]cc(CCN(C3CC3)C3CC3)c2c1

>  <log10 of EC50>
3.03

$$$$
>  <Compound>
C[C@@H]1CCN1CCc1c[nH]c2ncc(F)cc12

>  <log10 of EC50>
1.82

$$$$
>  <Compound>
Brc1cnc2[nH]cc(CCN3CCCC3)c2c1

>  <log10 of EC50>
2.95

$$$$
>  <Compound>
CCN(C)CCc1c[nH]c2ncc(C#N)cc12

>  <log10 of EC50>
3.07

$$$$
>  <Compound>
CN(CCc1c[nH]c2ncc(Cl)cc12)C1CC1

>  <log10 of EC50>
2.16

$$$$
>  <Compound>
CCN(C)CCc1c[nH]c2ncc(OC(F)(F)F)cc12

>  <log10 of EC50>
3.22

$$$$
>  <Compound>
COc1ccccc1CNCCc1c[nH]c2ncc(C#N)cc12

>  <log10 of EC50>
0.89

$$$$
>  <Compound>
COc1cnc2[nH]cc(CCN3CCCC3)c2c1

>  <log10 of EC50>
1.67

$$$$
>  <Compound>
Fc1cnc2[nH]cc(CCN3CCCCC3)c2c1

>  <log10 of EC50>
2.72

$$$$
>  <Compound>
COc1cccc(CNCCc2c[nH]c3ncc(C#N)cc23)c1

>  <log10 of EC50>
1.65

$$$$
>  <Compound>
Fc1cnc2[nH]cc(CCN3CCC34CCC4)c2c1

>  <log10 of EC50>
2.55

$$$$
>  <Compound>
CN(CCc1c[nH]c2ncc(F)cc12)C1CC1

>  <log10 of EC50>
1.53

$$$$
>  <Compound>
COc1ccccc1CNCCc1c[nH]c2ncc(Br)cc12

>  <log10 of EC50>
0.90

$$$$
>  <Compound>
Fc1cnc2[nH]cc(CCNCc3ccccc3)c2c1

>  <log10 of EC50>
1.26

$$$$
>  <Compound>
CCN(C)CCc1c[nH]c2ncc(Cl)cc12

>  <log10 of EC50>
2.17

$$$$
>  <Compound>
Fc1cccc(CNCCc2c[nH]c3ncc(Br)cc23)c1

>  <log10 of EC50>
1.87

$$$$
>  <Compound>
COc1cnc2[nH]cc(CCN(C)C3CC3)c2c1

>  <log10 of EC50>
0.98

$$$$
>  <Compound>
CN(CCc1c[nH]c2ncc(C#N)cc12)C1CC1

>  <log10 of EC50>
2.75

$$$$
>  <Compound>
C[C@@H]1CCCN1CCc1c[nH]c2ncc(F)cc12

>  <log10 of EC50>
1.82

$$$$
>  <Compound>
Fc1cnc2[nH]cc(CCNCC3CC3)c2c1

>  <log10 of EC50>
2.13

$$$$
>  <Compound>
Fc1cnc2[nH]cc(CCNC3CCC3)c2c1

>  <log10 of EC50>
2.13

$$$$
>  <Compound>
CC1CCN1CCc1c[nH]c2ncc(C#N)cc12 (stereo not shown)

>  <log10 of EC50>
3.06

$$$$
>  <Compound>
N#Cc1cnc2[nH]cc(CCN3CCC3)c2c1

>  <log10 of EC50>
2.83

$$$$
>  <Compound>
N#Cc1cnc2[nH]cc(CCNCc3cccc(F)c3)c2c1

>  <log10 of EC50>
2.13

$$$$
>  <Compound>
COc1cccc(CNCCc2c[nH]c3ncc(Br)cc23)c1

>  <log10 of EC50>
2.02

$$$$
>  <Compound>
CC(C)N(C)CCc1c[nH]c2ncc(Cl)cc12

>  <log10 of EC50>
2.06

$$$$
>  <Compound>
COc1cccc(CNCCc2c[nH]c3ncc(F)cc23)c1

>  <log10 of EC50>
0.92

$$$$
>  <Compound>
Brc1cnc2[nH]cc(CCN3CCC3)c2c1

>  <log10 of EC50>
2.09

$$$$
>  <Compound>
CC1CCN1CCc1c[nH]c2ncc(F)cc12 (stereo not shown)

>  <log10 of EC50>
1.51

$$$$
>  <Compound>
CN(CCc1c[nH]c2ncc(F)cc12)C1CCC1

>  <log10 of EC50>
1.90

$$$$
>  <Compound>
CCN(C)CCc1c[nH]c2ncc(Br)cc12

>  <log10 of EC50>
2.35

$$$$
>  <Compound>
Fc1cnc2[nH]cc(CCNC3CC3)c2c1

>  <log10 of EC50>
1.03

$$$$
>  <Compound>
COc1cnc2[nH]cc(CCN3CCC3)c2c1

>  <log10 of EC50>
1.38

$$$$
>  <Compound>
N#Cc1cnc2[nH]cc(CCN3CCCC3)c2c1

>  <log10 of EC50>
3.17

$$$$
>  <Compound>
N#Cc1cnc2[nH]cc(CCNCc3ccccc3F)c2c1

>  <log10 of EC50>
2.25

$$$$
>  <Compound>
Fc1ccccc1CNCCc1c[nH]c2ncc(Br)cc12

>  <log10 of EC50>
2.45

$$$$
>  <Compound>
Fc1cnc2[nH]cc(CCN3CCOCC3)c2c1

>  <log10 of EC50>
3.29

$$$$
>  <Compound>
C[C@H]1CCN1CCc1c[nH]c2ncc(F)cc12

>  <log10 of EC50>
2.06

$$$$
>  <Compound>
CC1CCN1CCc1c[nH]c2ncc(Br)cc12 (stereo not shown)

>  <log10 of EC50>
2.61

$$$$

====

System Under Test: 5-HT2A receptor (Homo sapiens)
Construct: host or cells: HEK293
Assay Notes: FLIPR Ca2+ flux functional assay, agonist activity at 5-HT2A
Type: cell-based
Measurement Parameters: stably transfected HEK293 cells
Protocol: Functional assays 5-HT2A, 5-HT2B and 5-HT2C Receptors Activity at 5-HT2A, 5-HT2B and 5-HT2C receptors was determined using a FLIPR Ca2+ flux assay at WuXi AppTec Co. Ltd. (Hong Kong) Discovery Biology Unit according to their standard protocols. […] 10 μL of references and compounds were then transferred from the compound plate into the cell plate and the fluorescent signal was read.
The following molecules are listed with their measured Emax values.
Recorded Metric: Emax (%)

>  <Molecule>
Fc1cnc2[nH]cc(CCNCc3ccccc3F)c2c1 [Compound S30]

>  <Recorded Result>
82

$$$$
>  <Molecule>
Brc1cnc2[nH]cc(CCN3CCC3)c2c1 [Compound S58]

>  <Recorded Result>
79

$$$$
>  <Molecule>
N#Cc1cnc2[nH]cc(CCNCc3cccc(F)c3)c2c1 [Compound S73]

>  <Recorded Result>
66

$$$$
>  <Molecule>
CCN(C)CCc1c[nH]c2ncc(Cl)cc12 [Compound S52]

>  <Recorded Result>
61

$$$$
>  <Molecule>
CC1CCN1CCc1c[nH]c2ncc(Br)cc12 (centres unmarked) [Compound S59]

>  <Recorded Result>
69

$$$$

====

System Under Test: 5-HT2B receptor (Homo sapiens)
Construct: host or cells: CHO-K1
Sequence (P41595 whole entry): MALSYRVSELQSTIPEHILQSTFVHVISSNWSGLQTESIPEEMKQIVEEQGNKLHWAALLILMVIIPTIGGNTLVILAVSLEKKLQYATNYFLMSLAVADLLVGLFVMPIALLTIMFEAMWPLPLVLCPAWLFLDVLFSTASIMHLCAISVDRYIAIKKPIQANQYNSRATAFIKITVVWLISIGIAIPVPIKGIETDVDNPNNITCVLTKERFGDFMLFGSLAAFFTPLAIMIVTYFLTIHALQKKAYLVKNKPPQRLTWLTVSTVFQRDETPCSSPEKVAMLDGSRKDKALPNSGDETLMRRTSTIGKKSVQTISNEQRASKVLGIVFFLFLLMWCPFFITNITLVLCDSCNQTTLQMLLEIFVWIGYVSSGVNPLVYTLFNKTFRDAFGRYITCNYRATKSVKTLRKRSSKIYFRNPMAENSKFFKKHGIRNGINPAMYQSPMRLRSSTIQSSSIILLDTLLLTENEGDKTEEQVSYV
Assay Notes: 5-HT2B activation in a similar assay at a single 10 μM concentration
Type: cell-based
The following compounds are listed with their measured 5-HT2B % Activation @ 10 μM values.

>  <Compound>
CN(CCc1c[nH]c2ncc(C#N)cc12)C1CC1 [Compound S68]

>  <5-HT2B % Activation @ 10 μM / %>
11

$$$$
>  <Compound>
CCN(C)CCc1c[nH]c2ncc(C#N)cc12 [Compound S66]

>  <5-HT2B % Activation @ 10 μM / %>
0

$$$$
>  <Compound>
C[C@@H]1CCCN1CCc1c[nH]c2ncc(F)cc12 [Compound S50]

>  <5-HT2B % Activation @ 10 μM / %>
2

$$$$
>  <Compound>
CC(C)N(C)CCc1c[nH]c2ncc(OC(F)(F)F)cc12 [Compound S65]

>  <5-HT2B % Activation @ 10 μM / %>
1

$$$$
>  <Compound>
CN(CCc1c[nH]c2ncc(Br)cc12)C1CC1 [Compound S56]

>  <5-HT2B % Activation @ 10 μM / %>
2

$$$$
>  <Compound>
CN(CCc1c[nH]c2ncc(OC(F)(F)F)cc12)C1CC1 [Compound S41]

>  <5-HT2B % Activation @ 10 μM / %>
0

$$$$
>  <Compound>
CCN(C)CCc1c[nH]c2ncc(OC(F)(F)F)cc12 [Compound S64]

>  <5-HT2B % Activation @ 10 μM / %>
1

$$$$
>  <Compound>
CCN(C)CCc1c[nH]c2ncc(Cl)cc12 [Compound S52]

>  <5-HT2B % Activation @ 10 μM / %>
3

$$$$
>  <Compound>
Brc1cnc2[nH]cc(CCN3CCC3)c2c1 [Compound S58]

>  <5-HT2B % Activation @ 10 μM / %>
3

$$$$
>  <Compound>
Fc1ccccc1CNCCc1c[nH]c2ncc(Br)cc12 [Compound S60]

>  <5-HT2B % Activation @ 10 μM / %>
0

$$$$
>  <Compound>
C[C@H]1CCN1CCc1c[nH]c2ncc(F)cc12 [Compound S48]

>  <5-HT2B % Activation @ 10 μM / %>
2

$$$$
>  <Compound>
N#Cc1cnc2[nH]cc(CCNCc3cccc(F)c3)c2c1 [Compound S73]

>  <5-HT2B % Activation @ 10 μM / %>
2

$$$$
>  <Compound>
COc1cnc2[nH]cc(CCN3CCC3)c2c1 [Compound S45]

>  <5-HT2B % Activation @ 10 μM / %>
0

$$$$
>  <Compound>
CC1CCN1CCc1c[nH]c2ncc(Br)cc12 (centres unmarked) [Compound S59]

>  <5-HT2B % Activation @ 10 μM / %>
0

$$$$
>  <Compound>
CC1CCN1CCc1c[nH]c2ncc(C#N)cc12 (centres unmarked) [Compound S71]

>  <5-HT2B % Activation @ 10 μM / %>
0

$$$$
>  <Compound>
COc1cnc2[nH]cc(CCN3CCCC3)c2c1 [Compound S46]

>  <5-HT2B % Activation @ 10 μM / %>
3

$$$$
>  <Compound>
N#Cc1cnc2[nH]cc(CCNCc3ccccc3F)c2c1 [Compound S72]

>  <5-HT2B % Activation @ 10 μM / %>
0

$$$$
>  <Compound>
CN(CCc1c[nH]c2ncc(F)cc12)C1CC1 [Compound S1]

>  <5-HT2B % Activation @ 10 μM / %>
2

$$$$
>  <Compound>
Fc1cccc(CNCCc2c[nH]c3ncc(Br)cc23)c1 [Compound S61]

>  <5-HT2B % Activation @ 10 μM / %>
0

$$$$
>  <Compound>
COc1cccc(CNCCc2c[nH]c3ncc(Br)cc23)c1 [Compound S63]

>  <5-HT2B % Activation @ 10 μM / %>
0

$$$$
